Source: patent US4000160A

# Test system: Ceratocystis ulmi
# protocol details: agar growth test, percent inhibition of Ceratocystis ulmi
# Type: cell-based
# condition info: 120 h; 10 parts per million; agar, 25° C., 5 days; read-out: % Inhibition, Agar Growth
result type: inhibition of growth at 10 µg/mL (%)

[
  {
    "structure as smiles": "COc1cccc(C(=O)c2cc(Br)c(Br)[nH]2)c1",
    "unit abbrev": "%",
    "meas value": 28
  },
  {
    "structure as smiles": "COc1ccc(OC)c(C(=O)c2cc(Cl)c(Cl)[nH]2)c1",
    "unit abbrev": "%",
    "meas value": 48
  },
  {
    "structure as smiles": "COc1ccc(C(=O)c2cc(Cl)c(Cl)[nH]2)cc1",
    "unit abbrev": "%",
    "meas value": 32
  },
  {
    "structure as smiles": "O=C(c1cc(Br)c(Br)[nH]1)c1cc(O)ccc1O",
    "unit abbrev": "%",
    "meas value": 28
  },
  {
    "structure as smiles": "O=C(c1cc(Cl)c(Cl)[nH]1)c1cc(O)ccc1O",
    "unit abbrev": "%",
    "meas value": 21
  }
]

###

# System: Staphylococcus aureus 209
# protocol details: in vitro antibacterial test (modified Autotiter method), minimum inhibitory concentration
# Format: cell-based
# condition info: organism A, Staphylococcus aureus 209; in vitro; read-out: minimum inhibitory concentration (MIC)
MIC reference

[
  {
    "structure as smiles": "O=C(c1cc(Br)c(Br)[nH]1)c1cc(O)ccc1O",
    "result comparator": "=",
    "MIC, µg/mL": 15.6
  },
  {
    "structure as smiles": "COc1ccc(C(=O)c2cc(Br)c(Br)[nH]2)cc1",
    "result comparator": ">",
    "MIC, µg/mL": 125
  },
  {
    "structure as smiles": "COc1ccc(C(=O)c2cc(Cl)c(Cl)[nH]2)cc1OC",
    "result comparator": ">",
    "MIC, µg/mL": 125
  },
  {
    "structure as smiles": "O=C(c1cc(Cl)c(Cl)[nH]1)c1cc(O)ccc1O",
    "result comparator": "=",
    "MIC, µg/mL": 0.98
  },
  {
    "structure as smiles": "COc1ccc(C(=O)c2cc(Cl)c(Cl)[nH]2)c(OC)c1",
    "result comparator": "=",
    "MIC, µg/mL": 62.5
  }
]

###

Measured inhibition of growth at 10 µg/mL, listed per entry.
# Test system: Ceratocystis ulmi
# protocol details: agar growth test, percent inhibition of Ceratocystis ulmi
# Format: cell-based
# condition info: 120 h; 10 parts per million; agar, 25° C., 5 days; read-out: % Inhibition, Agar Growth

[
  {
    "compound": "COc1ccc(C(=O)c2cc(Br)c(Br)[nH]2)cc1 [Example 6]",
    "target desc": "Ceratocystis ulmi",
    "inhibition of growth at 10 µg/mL / %": 11
  },
  {
    "compound": "O=C(c1cc(Cl)c(Cl)[nH]1)c1ccc(O)cc1O [Example 9]",
    "target desc": "Ceratocystis ulmi",
    "inhibition of growth at 10 µg/mL / %": 55
  },
  {
    "compound": "COc1ccc(C(=O)c2cc(Cl)c(Cl)[nH]2)cc1OC [Example 3]",
    "target desc": "Ceratocystis ulmi",
    "inhibition of growth at 10 µg/mL / %": 25
  },
  {
    "compound": "COc1ccc(OC)c(C(=O)c2cc(Br)c(Br)[nH]2)c1 [Example 2]",
    "target desc": "Ceratocystis ulmi",
    "inhibition of growth at 10 µg/mL / %": 32
  },
  {
    "compound": "COc1ccc(C(=O)c2cc(Cl)c(Cl)[nH]2)c(OC)c1 [Example 1]",
    "target desc": "Ceratocystis ulmi",
    "inhibition of growth at 10 µg/mL / %": 28
  }
]
